FYI, the data here is from patent US20160108049A1.

- assay target: human PDE5 (Homo sapiens)
- Construct: from tissue; host or cells: human platelets from fresh donor blood (platelet lysate)
- protocol text: Inhibition of PDE5 activity (platelet lysate, SPA assay)
- Type: biochemical
- condition: 0.5 μM cGMP, read-out: PDE5 Inhibitory values measured as -logIC50 (converted)
endpoint name: IC50

Below, 4 compounds whose answers are already recorded.
COc1ccc(C2=NN(C3CCN(C(=O)[C@@H](Cc4ccc(C(C)(C)C)cc4)NC(=O)c4c(C)[nH]c5c(-c6c(OCC7CC7)ccc7c6OCO7)ncnc45)CC3)C(=O)[C@@H]3CCCC[C@H]23)cc1OC = 1 to 10 nM
COc1ccc(C2=NN(C3CCN(C(=O)[C@@H](NC(=O)c4c[nH]c5c(-c6c(OCC7CC7)ccc7c6OCO7)ncnc45)[C@@H](C)O)CC3)C(=O)[C@@H]3CCCC[C@H]23)cc1OC = < 1 nM
COc1ccc(C2=NN(C3CCN(C(=O)[C@H](Cc4ccccn4)NC(=O)c4c(C)[nH]c5c(-c6c(OCC7CC7)ccc7c6OCO7)ncnc45)CC3)C(=O)[C@@H]3CCCC[C@H]23)cc1OC = < 1 nM
COc1ccc(C2=NN(C3CCN(C(=O)[C@@H](Cc4ccc(C(N)=O)cc4)NC(=O)c4c[nH]c5c(-c6c(OCC7CC7)ccc7c6OCO7)ncnc45)CC3)C(=O)[C@@H]3CCCC[C@H]23)cc1OC = < 1 nM

Kindly review the next compound as well.
I'd like to know its IC50. The compound in question is COc1ccc(C2=NN(C3CCN(C(=O)[C@@H](Cc4ccc(F)cc4)NC(=O)c4c[nH]c5c(-c6c(OCC7CC7)ccc7c6OCO7)ncnc45)CC3)C(=O)C(C)(C)C2)cc1OC
< 1 nM

* * *

- assay target: PDE4B1 (Homo sapiens, UniProt Q07343)
- Construct: made in house; host or cells: SF21 insect cells (baculovirus; virus made in SF9 cells, pCR-Bac vector)
- Sequence (Q07343 whole entry): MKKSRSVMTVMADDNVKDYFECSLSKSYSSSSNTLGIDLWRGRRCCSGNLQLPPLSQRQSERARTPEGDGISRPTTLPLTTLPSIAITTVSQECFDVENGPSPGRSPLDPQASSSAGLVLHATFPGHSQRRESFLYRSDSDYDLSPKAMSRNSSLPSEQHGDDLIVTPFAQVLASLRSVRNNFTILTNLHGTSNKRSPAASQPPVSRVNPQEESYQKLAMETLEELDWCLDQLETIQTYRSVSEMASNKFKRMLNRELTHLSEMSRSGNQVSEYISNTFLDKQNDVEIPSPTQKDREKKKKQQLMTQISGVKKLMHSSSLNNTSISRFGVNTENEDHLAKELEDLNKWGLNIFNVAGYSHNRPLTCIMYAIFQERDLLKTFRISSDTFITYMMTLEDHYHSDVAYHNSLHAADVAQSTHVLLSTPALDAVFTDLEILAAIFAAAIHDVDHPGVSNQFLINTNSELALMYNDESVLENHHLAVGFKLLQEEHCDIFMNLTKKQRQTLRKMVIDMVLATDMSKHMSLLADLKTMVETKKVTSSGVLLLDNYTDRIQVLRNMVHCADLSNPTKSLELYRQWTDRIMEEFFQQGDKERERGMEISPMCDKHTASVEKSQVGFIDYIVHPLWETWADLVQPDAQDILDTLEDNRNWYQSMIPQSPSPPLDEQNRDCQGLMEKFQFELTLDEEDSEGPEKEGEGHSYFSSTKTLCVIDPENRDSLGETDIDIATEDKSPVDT
- protocol text: Inhibition of PDE4 activity (PDE4B1, SPA assay)
- Assay type: biochemical
- condition: recombinant PDE4B1, 0.5 μM cAMP; read-out: PDE4B1 Inhibitory values measured as -logIC50 (converted)
endpoint name: IC50

COc1ccc(C2=NN(C3CCN(C(=O)[C@H](CCC(=O)N4CCCC4)NC(=O)c4c[nH]c5c(-c6c(OCC7CC7)ccc7c6OCO7)ncnc45)CC3)C(=O)[C@@H]3CCCC[C@H]23)cc1OC = 1 to 10 nM
COc1ccc(C[C@@H](NC(=O)c2c[nH]c3c(-c4c(OCC5CC5)ccc5c4OCO5)ncnc23)C(=O)N2CCC(N3N=C(c4ccc(OC)c(OC)c4)[C@H]4CCCC[C@H]4C3=O)CC2)cc1 = 1 to 10 nM
COc1ccc(C2=NN(C3CCN(C(=O)[C@@H](Cc4ccc(C)cc4)NC(=O)c4c(C)[nH]c5c(-c6c(OCC7CC7)ccc7c6OCO7)ncnc45)CC3)C(=O)[C@@H]3CCCC[C@H]23)cc1OC = < 1 nM

I'd like to know its IC50. The molecule in question is COc1ccc(C2=NN(C3CCN(C(=O)[C@H](Cc4ccc(O)cc4)NC(=O)c4c[nH]c5c(-c6c(OCC7CC7)ccc7c6OCO7)ncnc45)CC3)C(=O)[C@@H]3CCCC[C@H]23)cc1OC
< 1 nM

I'd like to know its IC50. The molecule in question is COc1ccc(C2=NN(C3CCN(C(=O)[C@@H](Cc4ccccc4Cl)NC(=O)c4c[nH]c5c(-c6c(OCC7CC7)ccc7c6OCO7)ncnc45)CC3)C(=O)[C@@H]3CCCC[C@H]23)cc1OC
< 1 nM

I'd like to know its IC50. The molecule in question is CCOc1ccc(C[C@@H](NC(=O)c2c[nH]c3c(-c4c(OCC5CC5)ccc5c4OCO5)ncnc23)C(=O)N2CCC(N3N=C(c4ccc(OC)c(OC)c4)[C@H]4CCCC[C@H]4C3=O)CC2)cc1
< 1 nM

I'd like to know its IC50. The molecule in question is COc1ccc(C2=NN(C3CCN(C(=O)[C@@H](CCSC)NC(=O)c4c[nH]c5c(-c6c(OCC7CC7)ccc7c6OCO7)ncnc45)CC3)C(=O)[C@@H]3CCCC[C@H]23)cc1OC
< 1 nM

I'd like to know its IC50. The molecule in question is COc1ccc(C2=NN(C3CCN(C(=O)[C@H](NC(=O)c4c[nH]c5c(-c6c(OCC7CC7)ccc7c6OCO7)ncnc45)[C@H](C)c4ccccc4)CC3)C(=O)[C@@H]3CCCC[C@H]23)cc1OC
< 1 nM

I'd like to know its IC50. The molecule in question is COc1ccc(C2=NN(C3CCN(C(=O)[C@H](NC(=O)c4c[nH]c5c(-c6c(OCC7CC7)ccc7c6OCO7)ncnc45)C(C)(C)C)CC3)C(=O)[C@@H]3CCCC[C@H]23)cc1OC
1 to 10 nM

I'd like to know its IC50. The molecule in question is COc1ccc(C2=NN(C3CCN(C(=O)CCNC(=O)c4c[nH]c5c(-c6c(OCC7CC7)ccc7c6OCO7)ncnc45)CC3)C(=O)[C@@H]3CCCC[C@H]23)cc1OC
1 to 10 nM

* * *

The compounds listed here are annotated with their IC50.
- assay target: human PDE5 (Homo sapiens, UniProt O76074)
- Construct: from tissue; host or cells: human platelets from fresh donor blood (platelet lysate)
- protocol text: Inhibition of PDE5 activity (platelet lysate, SPA assay)
- Format: biochemical
- condition: 0.5 μM cGMP, read-out: PDE5 Inhibitory values measured as -logIC50 (converted)

CCOc1ccc(C[C@@H](NC(=O)c2c(C)[nH]c3c(-c4cc(F)c(OC)cc4OCC4CC4)ncnc23)C(=O)N2CCC(N3N=C(c4ccc(OC)c(OC)c4)[C@H]4CCCC[C@H]4C3=O)CC2)cc1 [Example 8] = < 1 nM
COc1ccc(C2=NN(C3CCN(C(=O)[C@H](NC(=O)c4c[nH]c5c(-c6c(OCC7CC7)ccc7c6OCO7)ncnc45)C4CCCCC4)CC3)C(=O)[C@@H]3CCCC[C@H]23)cc1OC [Example 72] = 1 to 10 nM
COc1ccc(C2=NN(C3CCN(C(=O)[C@@H](Cc4ccc(Cl)cc4Cl)NC(=O)c4c[nH]c5c(-c6c(OCC7CC7)ccc7c6OCO7)ncnc45)CC3)C(=O)[C@@H]3CCCC[C@H]23)cc1OC [Example 48] = < 1 nM
COc1ccc(C2=NN(C3CCN(C(=O)[C@@H](Cc4ccc(C)cc4)NC(=O)c4c[nH]c5c(-c6c(OCC7CC7)ccc7c6OCO7)ncnc45)CC3)C(=O)[C@@H]3CCCC[C@H]23)cc1OC [Example 21] = < 1 nM
COc1ccc(C2=NN(C3CCN(C(=O)CCNC(=O)c4c[nH]c5c(-c6c(OCC7CC7)ccc7c6OCO7)ncnc45)CC3)C(=O)[C@@H]3CCCC[C@H]23)cc1OC [Example 76] = 1 to 10 nM
COc1ccc(C2=NN(C3CCN(C(=O)[C@@H](C)NC(=O)c4c[nH]c5c(-c6c(OCC7CC7)ccc7c6OCO7)ncnc45)CC3)C(=O)[C@@H]3CCCC[C@H]23)cc1OC [Example 62] = 1 to 10 nM
COc1ccc(C2=NN(C3CCN(C(=O)[C@@H](Cc4ccc(C(C)(C)C)cc4)NC(=O)c4c[nH]c5c(-c6c(OCC7CC7)ccc7c6OCO7)ncnc45)CC3)C(=O)[C@@H]3CCCC[C@H]23)cc1OC [Example 6] = 1 to 10 nM
COc1ccc(C2=NN(C3CCN(C(=O)[C@H](Cc4cccs4)NC(=O)c4c[nH]c5c(-c6c(OCC7CC7)ccc7c6OCO7)ncnc45)CC3)C(=O)[C@@H]3CCCC[C@H]23)cc1OC [Example 75] = 1 to 10 nM
COc1ccc(C2=NN(C3CCN(C(=O)[C@H](CCC(=O)NC(C)C)NC(=O)c4c[nH]c5c(-c6c(OCC7CC7)ccc7c6OCO7)ncnc45)CC3)C(=O)[C@@H]3CCCC[C@H]23)cc1OC [Example 106] = 1 to 10 nM
COc1ccc(C2=NN(C3CCN(C(=O)[C@H](Cc4cccs4)NC(=O)c4c(C)[nH]c5c(-c6c(OCC7CC7)ccc7c6OCO7)ncnc45)CC3)C(=O)[C@@H]3CCCC[C@H]23)cc1OC [Example 74] = < 1 nM

I'd like to know its IC50. The compound in question is COc1ccc(C2=NN(C3CCN(C(=O)[C@@H](Cc4ccc(Cl)cc4)NC(=O)c4c[nH]c5c(-c6c(OCC7CC7)ccc7c6OCO7)ncnc45)CC3)C(=O)[C@@H]3CCCC[C@H]23)cc1OC [Example 27]
< 1 nM

I'd like to know its IC50. The compound in question is COc1ccc(C2=NN(C3CCN(C(=O)[C@@H](Cc4ccc(N5CCCC5=O)cc4)NC(=O)c4c[nH]c5c(-c6c(OCC7CC7)ccc7c6OCO7)ncnc45)CC3)C(=O)[C@@H]3CCCC[C@H]23)cc1OC [Example 113]
< 1 nM

I'd like to know its IC50. The compound in question is CCC1(CC)CC(c2ccc(OC)c(OC)c2)=NN(C2CCN(C(=O)[C@@H](Cc3ccccc3)NC(=O)c3c[nH]c4c(-c5c(OCC6CC6)ccc6c5OCO6)ncnc34)CC2)C1=O [Example 116]
1 to 10 nM
